Field: CC50 at 72 h. Provide a value for each of the molecules that follow.
- Assay Protocol: Proliferation of exponentially growing Huh-5-2 cells (MTS method)
- Condition Notes: human, CC50, concentration required to inhibit the proliferation of exponentially growing Huh-5-2 cells by 50%; Table 2
- Experimental: Cells were seeded at a density of 7000 cells per well in 96 well View Plate™ (Packard) in medium containing the same components as described above, except for G418. Cells were allowed to adhere and proliferate for 24 hr. […] Luciferase activity is measured by adding 50 μl of 1×Glo-lysis buffer (Promega) for 15 minutes followed by 50 ul of the Steady-Glo Luciferase assay reagent (Promega). […] Instead the density of the culture is measured by means of the MTS method (Promega).
Give bare numbers, in µg/mL.

                                   molecule  measure_name  measured_number
0  COCCN1C(=O)c2ccccc2C(C(=O)Nc2ccc3[nH]c(C)cc3c2)C1c1cccs1 (centres unmarked)  CC50 at 72 h             69.7
1  COCCN1C(=O)c2ccccc2C(C(=O)Nc2cccc(OC)c2)C1CSC (centres unmarked)  CC50 at 72 h               72

Please supply CC50 at 72 h for each of the following items, keeping them in order.
1. C#CC1C(C(=O)Nc2cccc(OC)c2)c2ccccc2C(=O)N1CCOC (centres unmarked)
2. COCCN1C(=O)c2ccccc2C(C(=O)Nc2cccc(OC)c2)C1c1ccncc1 (centres unmarked)
3. COCCN1C(=O)c2ccccc2C(C(=O)Nc2cccc(OC)c2)C1c1ccco1 (centres unmarked)

Output:
1. 70
2. 70.3
3. 69.6

These entries and their values trace back to patent US20110224208A1.
